molecular target: Serine/threonine-protein kinase pim-1 (Homo sapiens); assay: Inhibition of human GST fused Pim1 expressed in Escherichia coli assessed as residual activity at 1 uM after 30 mins
Sequence (P11309 whole entry, looked up, the tested form may be a part): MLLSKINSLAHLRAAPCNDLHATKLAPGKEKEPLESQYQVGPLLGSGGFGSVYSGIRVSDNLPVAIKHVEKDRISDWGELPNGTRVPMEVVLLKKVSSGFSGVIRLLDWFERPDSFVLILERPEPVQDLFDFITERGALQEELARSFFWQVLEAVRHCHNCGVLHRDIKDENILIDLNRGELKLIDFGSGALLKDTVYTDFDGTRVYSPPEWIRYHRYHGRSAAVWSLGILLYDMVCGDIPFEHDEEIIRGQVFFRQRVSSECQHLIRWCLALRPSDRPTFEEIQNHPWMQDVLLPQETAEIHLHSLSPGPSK

smilesEntry: CCc1cccc2c1[nH]c1c2ccc2c(C=O)c[nH]c21
testedSystem: Serine/threonine-protein kinase pim-1 (Homo sapiens)
Activity, %: 7
//
smilesEntry: N#Cc1ccc2[nH]c3c(ccc4c(C=O)c[nH]c43)c2c1
testedSystem: Serine/threonine-protein kinase pim-1 (Homo sapiens)
Activity, %: 66
//
smilesEntry: O=Cc1c[nH]c2c1ccc1c3cc(F)ccc3[nH]c12
testedSystem: Serine/threonine-protein kinase pim-1 (Homo sapiens)
Activity, %: 15
//
smilesEntry: O=Cc1c[nH]c2c1ccc1c3cccc(C(F)(F)F)c3[nH]c12
testedSystem: Serine/threonine-protein kinase pim-1 (Homo sapiens)
Activity, %: 2
//
smilesEntry: O=Cc1c[nH]c2c1ccc1c3ccc(Br)cc3[nH]c12
testedSystem: Serine/threonine-protein kinase pim-1 (Homo sapiens)
Activity, %: 56
//
smilesEntry: O=Cc1c[nH]c2c1ccc1c2[nH]c2cccc(Br)c21
testedSystem: Serine/threonine-protein kinase pim-1 (Homo sapiens)
Activity, %: 3
//
smilesEntry: O=Cc1c[nH]c2c1ccc1c3cc([N+](=O)[O-])ccc3[nH]c12
testedSystem: Serine/threonine-protein kinase pim-1 (Homo sapiens)
Activity, %: 58
//
smilesEntry: Cc1ccc2c(c1)[nH]c1c2ccc2c(C=O)c[nH]c21
testedSystem: Serine/threonine-protein kinase pim-1 (Homo sapiens)
Activity, %: 45
